Molecular target: human GnRH receptor (Homo sapiens)
Construct: expressed in transfected cells; host or cells: HEK 293 (hGnRH-R/293, from Dr. Stuart Sealfon)
Sequence (P30968 whole entry): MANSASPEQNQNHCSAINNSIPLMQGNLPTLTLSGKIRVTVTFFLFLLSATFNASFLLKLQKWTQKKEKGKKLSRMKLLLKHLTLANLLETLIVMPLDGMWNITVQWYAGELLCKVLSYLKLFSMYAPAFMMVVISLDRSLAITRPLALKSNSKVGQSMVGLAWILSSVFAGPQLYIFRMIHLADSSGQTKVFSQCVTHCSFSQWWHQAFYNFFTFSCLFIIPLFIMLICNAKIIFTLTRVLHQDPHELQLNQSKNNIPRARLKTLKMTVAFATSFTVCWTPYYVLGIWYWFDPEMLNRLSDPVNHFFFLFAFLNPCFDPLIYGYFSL
Assay: Radioligand binding, 125I-GnRH-A displacement, membranes of HEK 293 cells with human GnRH receptor
Conditions: 1 h, substrate remaining; 1 uM compound; closer to zero = closer to 100% inhibition; read-out: S%R 1 uM hGnRHR
Protocol: All compounds were diluted in 1% DMSO (final assay concentration) in binding assay buffer. […] Reactions were terminated by rapid filtration onto 96-well Packard GF/C filters soaked in 0.1% polyethyleneimine. Filters were washed three times with PBS buffer, dried and counted on a Packard Topcount by liquid scintillation counting. […] The reaction mixture was vortexed and incubated for 1 min at room temperature. […] Fractions were assessed for biological activity by radioligand binding. […]
Listed next: entries and their corresponding remaining activity at 1 µM.
Numeric answer only, unit % assumed.

Reference set, count: 4
COMPOUND | remaining activity at 1 µM, %
Cc1ccc(CNC(=O)c2ccc(Cc3cc4c(cc3C)C(C)(C)CCC4(C)C)o2)cc1C [Compound 440] | 22
Cc1cccc(CNC(=O)c2ccc(Cc3cc4c(cc3C)C(C)(C)CCC4(C)C)o2)c1 [Compound 434] | 6
COc1ccc(CNC(=O)c2ccc(Cc3cc4c(cc3C)C(C)(C)CCC4(C)C)o2)cc1OC [Compound 411] | 28
Cc1cc2c(cc1Cc1ccc(C(=O)NCCOc3ccccc3)o1)C(C)(C)CCC2(C)C [Compound 438] | 7

Problem: I'd like to know its remaining activity at 1 µM. The compound in question is COc1ccc(CCNC(=O)c2ccc(Cc3cc4c(cc3C)C(C)(C)CCC4(C)C)o2)cc1 [Compound 433]
Solution: 54

Problem: Could you do the same for COc1ccccc1CCNC(=O)c1ccc(Cc2cc3c(cc2C)C(C)(C)CCC3(C)C)o1 [Compound 419] , please?
Solution: 36

Problem: Could you do the same for Cc1cc2c(cc1Cc1ccc(C(=O)NC(C)CCc3ccccc3)o1)C(C)(C)CCC2(C)C (stereo not shown) [Compound 423] , please?
Solution: 49

Problem: Could you do the same for Cc1ccc(CNC(=O)c2ccc(Cc3cc4c(cc3C)C(C)(C)CCC4(C)C)o2)cc1 [Compound 435] , please?
Solution: 12

Problem: Could you do the same for Cc1cc2c(cc1Cc1ccc(C(=O)NCc3cccc(Br)c3)o1)C(C)(C)CCC2(C)C [Compound 454] , please?
Solution: 36

Problem: Could you do the same for COCCNC(=O)c1ccc(Cc2cc3c(cc2C)C(C)(C)CCC3(C)C)o1 [Compound 432] , please?
Solution: 42

Problem: Could you do the same for Cc1cc2c(cc1Cc1ccc(C(=O)NCc3cccc(Cl)c3Cl)o1)C(C)(C)CCC2(C)C [Compound 416] , please?
Solution: 34

Problem: Could you do the same for Cc1cc2c(cc1Cc1ccc(C(=O)NCCC#N)o1)C(C)(C)CCC2(C)C [Compound 436] , please?
Solution: 58

Problem: Could you do the same for Cc1cc2c(cc1Cc1ccc(C(=O)NCc3cccc(C)c3C)o1)C(C)(C)CCC2(C)C [Compound 441] , please?
Solution: 17

Problem: Could you do the same for Cc1cc2c(cc1Cc1ccc(C(=O)NCc3ccc(N(C)C)cc3)o1)C(C)(C)CCC2(C)C [Compound 447] , please?
Solution: 18

Problem: Could you do the same for Cc1cc2c(cc1Cc1ccc(C(=O)NC(c3ccccc3)C(O)c3ccccc3)o1)C(C)(C)CCC2(C)C (stereo not shown) [Compound 403] , please?
Solution: 44

Problem: Could you do the same for Cc1ccc(CCNC(=O)c2ccc(Cc3cc4c(cc3C)C(C)(C)CCC4(C)C)o2)cc1 [Compound 442] , please?
Solution: 50
